Test system: PPARg:RXRa 270nM:90nM, anti-RXR (NR concentration 270 nM, RXRa partner concentration 90 nM)
TEST: PBM binding z-score (relative to random genomic background probes); higher = stronger binding; sequences stand for … in GC…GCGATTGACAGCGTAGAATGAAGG
MEASURED ENDPOINT: PBM binding z-score

Worked cases, PBM binding z-score given:
> print(dat)
                       input.sequence    measured.endpoint  value
1  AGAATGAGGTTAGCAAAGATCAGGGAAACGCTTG  PBM binding z-score  0.909
2  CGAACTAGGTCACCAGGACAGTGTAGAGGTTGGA  PBM binding z-score   6.85
3  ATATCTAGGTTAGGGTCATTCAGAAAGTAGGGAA  PBM binding z-score    6.5
4  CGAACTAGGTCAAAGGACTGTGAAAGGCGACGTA  PBM binding z-score   7.84
5  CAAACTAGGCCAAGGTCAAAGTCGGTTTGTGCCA  PBM binding z-score   6.01
6  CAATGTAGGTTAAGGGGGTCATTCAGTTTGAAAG  PBM binding z-score   8.13

Record PBM binding z-score per entry; entries follow.
1. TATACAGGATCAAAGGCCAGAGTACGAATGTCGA
2. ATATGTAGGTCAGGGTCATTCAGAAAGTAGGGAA

// result
1: 3.11; 2: 7.66

Record PBM binding z-score per entry; entries follow.
1. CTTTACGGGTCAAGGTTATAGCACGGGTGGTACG
2. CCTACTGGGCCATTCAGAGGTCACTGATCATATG
3. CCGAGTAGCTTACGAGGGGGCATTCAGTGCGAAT
4. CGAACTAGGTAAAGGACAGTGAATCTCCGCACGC
5. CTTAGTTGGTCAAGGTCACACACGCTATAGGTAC
6. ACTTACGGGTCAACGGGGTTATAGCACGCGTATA
7. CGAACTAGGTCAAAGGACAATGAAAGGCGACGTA

// result
5.41
3.18
0.5
1.3
4.71
5.83
8.49

Record PBM binding z-score per entry; entries follow.
1. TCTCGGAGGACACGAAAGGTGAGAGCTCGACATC
2. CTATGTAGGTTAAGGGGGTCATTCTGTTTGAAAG
3. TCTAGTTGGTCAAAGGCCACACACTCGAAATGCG
4. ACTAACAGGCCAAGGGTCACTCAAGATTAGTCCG
5. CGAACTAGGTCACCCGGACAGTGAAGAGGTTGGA
6. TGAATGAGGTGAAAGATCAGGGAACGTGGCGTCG
7. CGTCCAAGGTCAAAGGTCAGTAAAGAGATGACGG
8. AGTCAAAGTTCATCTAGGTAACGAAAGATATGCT

// result
1. 1.01
2. 7.68
3. 7.01
4. 6.64
5. 6.77
6. 6.92
7. 9.28
8. 6.66

---

Test system: PPARg:RXRa IVT, anti-PPARg (NR concentration 270 nM, RXRa partner concentration 90 nM)
TEST: PBM binding z-score (relative to random genomic background probes); higher = stronger binding; sequences stand for … in GC…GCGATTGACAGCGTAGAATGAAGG
MEASURED ENDPOINT: PBM binding z-score
One number for each entry.

> print(dat)
                       input.sequence  value
1  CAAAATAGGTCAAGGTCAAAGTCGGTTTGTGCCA   8.26

Record PBM binding z-score per entry; entries follow.
1. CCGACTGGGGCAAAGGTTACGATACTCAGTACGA
2. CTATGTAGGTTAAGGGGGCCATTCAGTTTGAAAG
3. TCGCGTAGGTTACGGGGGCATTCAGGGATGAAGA
4. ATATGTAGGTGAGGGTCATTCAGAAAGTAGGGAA
5. CCGAGTAGGTTACGAGGAGGCATTCAGTGCGAAT
6. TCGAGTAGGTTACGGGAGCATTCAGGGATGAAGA
7. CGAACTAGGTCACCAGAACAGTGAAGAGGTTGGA
8. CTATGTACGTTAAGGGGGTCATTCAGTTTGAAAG

// result
1. 6.38
2. 7.17
3. 4.58
4. 7.69
5. 3.39
6. 3.32
7. 8.85
8. 5.2

Record PBM binding z-score per entry; entries follow.
1. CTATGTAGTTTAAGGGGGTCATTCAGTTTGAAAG
2. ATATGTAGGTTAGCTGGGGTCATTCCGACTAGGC

// result
1. 4.99
2. 5.93

Record PBM binding z-score per entry; entries follow.
1. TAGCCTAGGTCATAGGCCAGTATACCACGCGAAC
2. CAAACTAGGTCACCGGAAGGTCAAAGTTCGCATG
3. TCATATAGGTAATAAAGGTGAAAGTCGGCATCTA

// result
3.09
9.06
3.74

Record PBM binding z-score per entry; entries follow.
1. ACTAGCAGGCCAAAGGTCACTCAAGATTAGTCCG
2. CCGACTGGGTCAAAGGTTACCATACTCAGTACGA

// result
5.44
7.26
